# Tested on: A549
# experiment-summary: Cytotoxicity against human A549 cells assessed as cell growth at 5 uM measured at 72 hrs by CyQuant proliferation assay relative to control
# Type: functional
# measurement-setup: A549, 72 h, read-out: Activity
Mark 0.0 for growth at 5 µM values under 80%, and 1.0 for everything at or above.

compound: CCCCC(C)CCC/C=C\CCCCCCC(=O)NCCc1cc(Br)c(OCCCNC(=O)C2=NO[C@@]3(C=C(Br)C(OC)=C(Br)[C@H]3O)C2)c(Br)c1 (some centres not stated)
assay-system: A549
assigned-category: 1.0
//
compound: COC1=C(Br)[C@@H](O)[C@]2(C=C1Br)CC(C(=O)NCCCOc1c(Br)cc(CCNC(=N)N)cc1Br)=NO2
assay-system: A549
assigned-category: 1.0
//
compound: CNCCCOc1c(Br)cc(CCNC(=O)/C(Cc2cc(Br)c(OC)c(Br)c2)=N/O)cc1Br
assay-system: A549
assigned-category: 0.0
//
compound: COC1=C(Br)[C@@H](O)[C@]2(C=C1Br)CC(C(=O)NCCCOc1c(Br)cc(CCN)cc1Br)=NO2
assay-system: A549
assigned-category: 0.0
//
compound: CNCCCOc1c(Br)cc(CCNC(=O)/C(Cc2ccc(O)c(Br)c2)=N/O)cc1Br
assay-system: A549
assigned-category: 1.0
